B1: ZBED3 (parent)
chain: GPGFHAGTSALWRHLRSAHRRELE

variants of: B1; experiment: protein stability index of a GFP-peptide fusion (GPS, HEK-293T) (PSI 1-6); higher = more stable; conditions: c terminus: a fixed tail appended;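 note: lentivirally expressed fusions sorted by FACS into six bins by GFP to DsRed ratio, PSI derived from sequencing read proportions per bin multiplied by bin number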
protein stability index listing for selected variants.

variant-name | protein stability index
A18H | 2.04
H14Y | 1.98
S9C | 2
R20D | 2.01
H19V | 3.03
H14M | 1.99
H5R | 3.02
S17Q | 2.03
E22K | 1.97
R13T | 1.99
F4D | 3
E24R | 2.96
S9R | 3.03
G1F | 1.96
L11V | 1.99
A6N | 2
R13H | 1.98

Where these numbers come from: the supplement of paper PMC10567573
